TARGET: BTK recombinant protein (Homo sapiens (Human), UniProt Q06187)
Sequence (Q06187 whole entry): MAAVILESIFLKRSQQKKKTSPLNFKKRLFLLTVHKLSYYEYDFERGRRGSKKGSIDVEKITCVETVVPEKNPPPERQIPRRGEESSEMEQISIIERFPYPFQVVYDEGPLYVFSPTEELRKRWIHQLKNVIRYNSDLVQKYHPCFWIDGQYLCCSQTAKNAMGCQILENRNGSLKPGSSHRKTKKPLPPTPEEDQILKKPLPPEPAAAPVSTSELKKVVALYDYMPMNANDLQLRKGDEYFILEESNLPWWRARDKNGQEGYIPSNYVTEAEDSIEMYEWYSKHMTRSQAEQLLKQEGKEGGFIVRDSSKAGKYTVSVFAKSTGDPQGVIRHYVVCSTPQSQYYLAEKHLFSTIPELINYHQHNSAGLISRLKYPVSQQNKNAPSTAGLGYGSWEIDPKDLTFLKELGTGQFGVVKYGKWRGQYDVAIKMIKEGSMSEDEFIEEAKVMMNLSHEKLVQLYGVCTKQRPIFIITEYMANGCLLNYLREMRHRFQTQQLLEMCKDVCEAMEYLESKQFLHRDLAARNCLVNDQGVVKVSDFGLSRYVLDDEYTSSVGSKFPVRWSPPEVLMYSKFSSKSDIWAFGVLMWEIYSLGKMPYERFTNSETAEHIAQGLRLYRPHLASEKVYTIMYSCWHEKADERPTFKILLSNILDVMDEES
TEST_METHOD_NOTES: Determination of biochemical BTK (Z'-LYTE kinase assay)
This section presents compounds with their documented IC50 values.
MEASUREMENT_NAME: IC50 (nM)

| COMPOUND | TARGET | OBSERVED_MEASUREMENT |
| --- | --- | --- |
| Cn1cc(-c2ccnc(-n3ccn4c5c(cc4c3=O)CC(C)(C)C5)c2CO)cc(Nc2ccc(N3CCN(C4COC4)CC3)nn2)c1=O [Compound 222] | BTK recombinant protein (Homo sapiens (Human), UniProt Q06187) | 8 |
| Cn1cc(-c2ccnc(-n3ccn4c5c(cc4c3=O)CC(C)(C)C5)c2CO)cc(Nc2cn(CCF)nn2)c1=O [Compound 31] | BTK recombinant protein (Homo sapiens (Human), UniProt Q06187) | 9 |
| C[C@@H]1CN(c2ccc(Nc3cc(-c4ccnc(-n5ncn6c7c(cc6c5=O)CC(C)(C)C7)c4CO)cn(C)c3=O)nc2)[C@@H](C)CN1C1COC1 [Compound 193] | BTK recombinant protein (Homo sapiens (Human), UniProt Q06187) | 12 |
| C[C@H]1COCCN1c1ccc(Nc2cc(-c3ccnc(-n4ncn5c6c(cc5c4=O)CC(C)(C)C6)c3CO)cn(C)c2=O)nn1 [Compound 212] | BTK recombinant protein (Homo sapiens (Human), UniProt Q06187) | 10 |
| Cn1cc(Nc2cc(-c3ccnc(-n4ccn5c6c(cc5c4=O)CC(C)(C)C6)c3CO)nn(C)c2=O)nn1 [Compound 29] | BTK recombinant protein (Homo sapiens (Human), UniProt Q06187) | 8 |
| C[C@H]1CN(C2COC2)CCN1c1ccc(Nc2cc(-c3ccnc(-n4ccn5c6c(cc5c4=O)CC(C)(C)C6O)c3CO)cn(C)c2=O)nc1 (mixture of isomers) [Compound 182] | BTK recombinant protein (Homo sapiens (Human), UniProt Q06187) | 8 |

---

TARGET: phosphorylated BTK in Ramos cells (Homo sapiens (Human), UniProt Q06187)
TEST_METHOD_NOTES: Determination of phosphorylated BTK in Ramos cells (BTK phospho-Y223 HTRF)
CONDITION_PARAMETERS: anti-human IgM + hydrogen peroxide stimulation
This section presents compounds with their documented IC50 values.
MEASUREMENT_NAME: IC50

| STRUCTURE_AS_SMILES | OBSERVED_MEASUREMENT |
| --- | --- |
| CCn1cc(Nc2cc(-c3ccnc(-n4ncn5c6c(cc5c4=O)CC(C)(C)C6)c3CO)cn3ncnc23)nn1 | 4 nM |
| C[C@H]1COCCN1c1ccc(Nc2cc(-c3ccnc(-n4ncn5c6c(cc5c4=O)CC(C)(C)C6)c3CO)cn(C)c2=O)nn1 | 11 nM |
| COc1ccc(Nc2cc(-c3ccnc(-n4ncn5c6c(cc5c4=O)CC(C)(C)C6)c3CO)cn(C)c2=O)nc1 | 13 nM |

---

This section presents compounds with their documented IC50 values.
TARGET: BTK recombinant protein (Homo sapiens (Human), UniProt Q06187)
TEST_METHOD_NOTES: Determination of biochemical BTK (Z'-LYTE kinase assay)

| COMPOUND | OUTPUT_UNIT | IC50 |
| --- | --- | --- |
| COCCN1CCn2nc(Nc3cc(-c4ccnc(-n5ccn6c7c(cc6c5=O)CC(C)(C)C7)c4CO)cn(C)c3=O)cc2[C@@H]1C | nM | 10 |
| Cc1nn(-c2nccc(-c3cc(Nc4ccc(N5CCN(C6COC6)C[C@@H]5C)cn4)c(=O)n(C)c3)c2CO)c(=O)c2cc3c(n12)CC(C)(C)C3 | nM | 10 |
| Cn1cc(-c2ccnc(-n3ncn4c5c(cc4c3=O)CC(C)(C)C5)c2CO)cc(Nc2ccc(C3CN(C4COC4)C3)cn2)c1=O | nM | 14 |
| C[C@H]1CN(C2COC2)CCN1c1ccc(Nc2cc(-c3ccnc(-n4ccn5c(cc6c(F)cccc65)c4=O)c3CO)cn(C)c2=O)nc1 | nM | 33 |
| C[C@H]1CN(C2COC2)CCN1c1ccc(Nc2cc(-c3cncc(-n4ccn5c6c(cc5c4=O)CC(C)(C)C6)c3CO)cn(C)c2=O)nc1 | nM | 11 |
| C[C@H]1CN(C2COC2)CCN1c1ccc(Nc2cc(-c3ccnc(-n4ccn5c(cc6ccccc65)c4=O)c3CO)cn(C)c2=O)nc1 | nM | 17 |
| C[C@H]1CN(C2COC2)CCN1c1ccc(Nc2cc(-c3ccnc(-n4ncn5c6c(cc5c4=O)CC(C)(C)C6)c3CO)cn(C)c2=O)nn1 | nM | 15 |
| CC1CCc2c(cc3c(=O)n(-c4nccc(-c5cc(Nc6ccc(N7CCN(C8COC8)C[C@@H]7C)cn6)c(=O)n(C)c5)c4CO)ccn23)C1 (mixture of isomers) | nM | 14 |
| Cn1cc(-c2ccnc(-n3ncn4c5c(cc4c3=O)CC(C)(C)C5)c2CO)cc(Nc2cc3n(n2)CCOC3)c1=O | nM | 6 |
| C[C@H]1CN(C2COC2)CCN1c1ccc(Nc2cc(-c3ccnc(-n4ccn5c(cc6cc(F)ccc65)c4=O)c3CO)cn(C)c2=O)nc1 | nM | 11 |
